assay: Pharmacokinetics, single ascending dose; type: in vivo, human; conditions: 600 mg single dose, geometric mean (%CV)

given smiles: Cc1cc(-c2ccc(C(=O)[C@@H]3CCCC[C@H]3C(=O)Nc3cnn4c3C(=O)NCC4)cc2)n[nH]1
Cmax: 5.05 µM

====

test: Pharmacokinetics, single ascending dose; type: in vivo, human; conditions: 300 mg single dose, geometric mean (%CV)

given smiles: Cc1cc(-c2ccc(C(=O)[C@@H]3CCCC[C@H]3C(=O)Nc3cnn4c3C(=O)NCC4)cc2)n[nH]1
Cmax (nM): 2360

====

assay: Pharmacokinetics, single ascending dose; format: in vivo, human; conditions: 50 mg single dose, geometric mean (%CV)
experimental readout: Cmax (µM)

given smiles: Cc1cc(-c2ccc(C(=O)[C@@H]3CCCC[C@H]3C(=O)Nc3cnn4c3C(=O)NCC4)cc2)n[nH]1
experimental readout: Cmax
endpoint value: 0.0816
